Biological target: Serine/threonine-protein kinase 16 (Homo sapiens, UniProt O75716); further: in the data inactive means no Kd found up to 30 µM
Sequence (O75716 whole entry): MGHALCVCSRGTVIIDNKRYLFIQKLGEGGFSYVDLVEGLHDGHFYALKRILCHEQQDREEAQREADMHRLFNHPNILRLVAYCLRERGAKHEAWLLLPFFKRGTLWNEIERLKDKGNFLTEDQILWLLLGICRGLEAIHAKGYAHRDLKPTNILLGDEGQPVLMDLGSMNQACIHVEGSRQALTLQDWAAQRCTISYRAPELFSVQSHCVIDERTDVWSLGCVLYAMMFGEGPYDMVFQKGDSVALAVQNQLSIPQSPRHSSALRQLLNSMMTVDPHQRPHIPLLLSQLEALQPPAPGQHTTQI
Active and inactive are the calls of the source.
Labels: active, inactive

Compound | Classification
CC[C@@H]1C(=O)N(C)c2cnc(Nc3ccc(C(=O)N[C@H]4CC[C@H](N5CCN(CC6CC6)CC5)CC4)cc3OC)nc2N1C(C)C [VOLASERTIB] | inactive
COCCNCc1ccc(-c2cc3nccc(Oc4ccc(NC(=S)NC(=O)Cc5ccc(F)cc5)cc4F)c3s2)nc1 [GLESATINIB] | inactive
CCN1CCN(Cc2ccc(-c3cc4c(N[C@H](C)c5ccccc5)ncnc4[nH]3)cc2)CC1 [AEE-788] | inactive
C[C@@H](c1ccc2nccn2c1)n1nnc2ncc(-c3cnn(C)c3)nc21 [SAVOLITINIB] | inactive
C1=C/COCc2cc(ccc2OCCN2CCCC2)Nc2nccc(n2)-c2cccc(c2)COC/1 [PACRITINIB] | active
CN(C)C(=O)c1cc2cnc(Nc3ccc(N4CCNCC4)cn3)nc2n1C1CCCC1 [RIBOCICLIB] | inactive
N[C@@H]1CCCN(c2c(/C=C3\SC(=O)NC3=O)cccc2-c2ccccc2)C1 | inactive
COc1cc(N2CCC(N3CCN(C)CC3)CC2)ccc1Nc1ncnc(Nc2ccccc2S(=O)(=O)C(C)C)n1 [ASP-3026] | inactive
CC(=O)Nc1cccc(-n2c(=O)n(C3CC3)c(=O)c3c(Nc4ccc(I)cc4F)n(C)c(=O)c(C)c32)c1 [TRAMETINIB] | inactive
Cn1cc(-c2ccc(F)c(C(F)(F)F)c2)nc1C1CCN(c2ncnc3[nH]ncc23)CC1 [LY-2584702] | inactive
COc1cc(OC)c(/C=C/S(=O)(=O)Cc2ccc(OC)c(NCC(=O)O)c2)c(OC)c1 [RIGOSERTIB] | inactive
CNS(=O)(=O)Nc1nccc(Cc2c(C)c3ccc(Oc4ncccn4)cc3oc2=O)c1F [AVUTOMETINIB] | inactive
C=CC(=O)N1CCC(Oc2cc3c(Nc4ccc(Cl)c(Cl)c4F)ncnc3cc2OC)CC1 [POZIOTINIB] | inactive
CN1CCC(CNc2ccc3ncc(-c4cccc(OC(F)(F)F)c4)n3n2)CC1 [SGI-1776] | inactive
C[C@@H]1CN(Cc2ccc(F)cc2)[C@@H](C)CN1C(=O)c1cc2c(C(=O)C(=O)N(C)C)cn(C)c2cc1Cl [TALMAPIMOD] | inactive
Cc1ccc(S(=O)(=O)Nc2nc3ccccc3nc2Nc2ccc3nsnc3c2)cc1 | inactive

Source of measurements: ChEMBL document CHEMBL3991601
